The reported measurements were obtained from PubChem BioAssay (NCI).

# Tested on: EKVX NSCLC
# PROTOCOL DETAILS: NCI tumour cell line growth inhibition, 48 h
Where a SMILES comes first, the peptide text is derived from it. The star is where a group is joined. Palmitoyl = CCCCCCCCCCCCCCCC(=O)*
Listing of recorded TGI by entry.

{"COMPOUND": "CCOc1c(OC)cc(-c2nc3n(n2)C(=O)C(CC)S3)cc1OC (stereo not drawn)", "MEASUREMENT TARGET": "EKVX NSCLC", "TGI": "> 10 µM"}

Endpoint output: TGI of CCCCCCCCCCCCCCCC(=O)N1CCCC1C(=O)NCC(=O)NC(Cc1ccccc1)C(=O)N1CCCC1C(=O)NC(CO)C(=O)NC(Cc1ccc(O)cc1)C(=O)NC(CCCCN)C(=O)NC(CC(C)C)C(=O)NC(CCCN=C(N)N)C(=O)N1CCCC1C(=O)NCC(N)=O (stereo not drawn) (Palmitoyl-PGFPSYKLRPG-NH2; configuration not given here) . Value?
44.5 µM

# iterate: O=S(=O)(OI(OI(OS(=O)(=O)C(F)(F)F)c1ccccc1)c1ccccc1)C(F)(F)F
> 100 µM

# iterate: OC(C#CCN1CCCC1)(c1ccccc1)c1ccccc1Cl (stereo not drawn)
> 100 µM

# iterate: CCCCOCCOC1=C(Cl)C(=O)c2c(O)ccc(O)c2C1=O
7.59 µM

# iterate: COC(=O)c1ccccc1CC1Cc2cccc(C)c2C1=O (stereo not drawn)
41.9 µM

# iterate: CC(C)(CO)CNc1nc(N)nc(Cl)c1/C=N/O
> 100 µM

# iterate: CC1=C(C#N)c2nc3ccccc3n2C(=O)C1(C)CCO (stereo not drawn)
> 100 µM
